target: Cytochrome P450 1A2 (Homo sapiens); assay: Cytochrome P450 Family 1 Subfamily A Member 2 (CYP1A2) small molecule antagonists: luciferase reporter qHTS assay (AID 1671199); conditions: P450-Glo CYP1A2 enzyme, luciferin luminescence, 1 h; series mostly up to 115 µM; further: nearly all actives have a fitted effect of over 50% in size
Results filed as inconclusive are left out. Activity calls are given as the source filed them. The call rests on the fitted dose curve; in most records, active means well fitted inhibition curve with a large enough effect in the repeat runs; inconclusive means weak or mixed curves; inactive means no such curve, though single readings can be large or run the other way.
The reply should be one of these categories: yes (active), no (inactive)

* CCOC(=O)c1ccc(C2CCC(NC[C@H](O)COc3ccc(O)c(NS(C)(=O)=O)c3)CC2)cc1 (stereo partly specified) | no
* CNC(=O)c1ccccc1Sc1ccc2c(/C=C/c3ccccn3)n[nH]c2c1 | yes
* CNc1ccc([N+](=O)[O-])cc1 | yes
* CC(C)(C)NSc1nc2ccccc2s1 | yes

**Query** What did this assay record as the result for O=C(O)Cc1ccccc1Nc1c(Cl)cccc1Cl ?
**Result** no

**Query** Proceed to CCCCCCCCCCCCCCCC[N+](C)(C)CC
**Result** no
